We begin with a simple list: items and their reported Ki.
Molecular target: opioid δ receptor (Rattus norvegicus (Rat))
Experiment: Binding assay of opioid δ receptor ([3H]-DADLE, rat cerebrum membrane)
Conditions: [3H]-DADLE, rat cerebrum membrane fraction; read-out: Ki

| Compound | Ki (nM) |
| --- | --- |
| O=C(N[C@H]1CCOC1=O)C1=C(O)[C@@H]2Oc3c(O)ccc4c3[C@@]23CCN(CC2CC2)[C@H](C4)[C@]3(O)C1 [Compound I-145] | 13.9 |
| COC(=O)C1(NC(=O)C2=C(O)[C@@H]3Oc4c(O)ccc5c4[C@@]34CCN(CC3CC3)[C@H](C5)[C@]4(O)C2)CCCC1 [Compound I-133] | 9.85 |
| Cc1ccc2nc(=O)c3c(n2c1)[C@@H]1Oc2c(O)ccc4c2[C@@]12CCN(CC1CC1)[C@H](C4)[C@]2(O)C3 [Compound I-267] | 41.5 |
